# reported.conditions: 343.15 K; 70100 kPa; Liquid; Frequency=1.5 MHz; Single path-length method
measurement.name: speed of sound (m/s)

[[record]]
smiles_str = "CCCCCC"
measurement_name = "speed of sound"
recorded_value = 1354.1

[[record]]
smiles_str = "CCCCCCCC"
measurement_name = "speed of sound"
recorded_value = 1412.8

[[record]]
smiles_str = "CO"
measurement_name = "speed of sound"
recorded_value = 1323.1

[[record]]
smiles_str = "CCCCCCC"
measurement_name = "speed of sound"
recorded_value = 1387

[[record]]
smiles_str = "O"
measurement_name = "speed of sound"
recorded_value = 1681

[[record]]
smiles_str = "CCCO"
measurement_name = "speed of sound"
recorded_value = 1419.9

[[record]]
smiles_str = "Cc1ccccc1"
measurement_name = "speed of sound"
recorded_value = 1451.5

[[record]]
smiles_str = "CCO"
measurement_name = "speed of sound"
recorded_value = 1370.2


* * *

# reported.conditions: 313.15 K; 50100 kPa; Liquid; Frequency=1.5 MHz; Single path-length method
Each entry below lists one item and its recorded speed of sound value.
measurement.name: speed of sound (m/s)

[[record]]
molecule = "CCO [ethanol]"
measurement_name = "speed of sound"
uom = "m/s"
recorded_value = 1358.2

[[record]]
molecule = "O [water]"
measurement_name = "speed of sound"
uom = "m/s"
recorded_value = 1613.8

[[record]]
molecule = "CCCCCCC [heptane]"
measurement_name = "speed of sound"
uom = "m/s"
recorded_value = 1377.4

[[record]]
molecule = "CCCCCCCC [octane]"
measurement_name = "speed of sound"
uom = "m/s"
recorded_value = 1405.1

[[record]]
molecule = "CCCO [propan-1-ol]"
measurement_name = "speed of sound"
uom = "m/s"
recorded_value = 1410.1

[[record]]
molecule = "CCCCCC [hexane]"
measurement_name = "speed of sound"
uom = "m/s"
recorded_value = 1341.4

[[record]]
molecule = "Cc1ccccc1 [toluene]"
measurement_name = "speed of sound"
uom = "m/s"
recorded_value = 1468.9

[[record]]
molecule = "CO [methanol]"
measurement_name = "speed of sound"
uom = "m/s"
recorded_value = 1309.7


* * *

# reported.conditions: 293.15 K; 5100 kPa; Liquid; Frequency=1.5 MHz; Single path-length method
measurement.name: speed of sound (m/s)

[[record]]
smiles_str = "CCCCCC"
recorded_value = 1141.9

[[record]]
smiles_str = "CCO"
recorded_value = 1193.5

[[record]]
smiles_str = "CCCCCCCC"
recorded_value = 1227.9

[[record]]
smiles_str = "CCCO"
recorded_value = 1252.2

[[record]]
smiles_str = "CCCCCCC"
recorded_value = 1189.6

[[record]]
smiles_str = "CO"
recorded_value = 1149.2

[[record]]
smiles_str = "Cc1ccccc1"
recorded_value = 1352.2

[[record]]
smiles_str = "O"
recorded_value = 1490.5


* * *

# reported.conditions: 343.15 K; 5100 kPa; Liquid; Frequency=1.5 MHz; Single path-length method
± gives the expanded uncertainty stated by the source.
measurement.name: speed of sound

[[record]]
compound = "Cc1ccccc1 [toluene]"
measurement_name = "speed of sound"
recorded_value = "1149.1 ± 2.6 m/s"

[[record]]
compound = "CO [methanol]"
measurement_name = "speed of sound"
recorded_value = "994.42 ± 2.5 m/s"

[[record]]
compound = "O [water]"
measurement_name = "speed of sound"
recorded_value = "1565 ± 3.2 m/s"

[[record]]
compound = "CCCO [propan-1-ol]"
measurement_name = "speed of sound"
recorded_value = "1090.2 ± 2.6 m/s"

[[record]]
compound = "CCCCCCCC [octane]"
measurement_name = "speed of sound"
recorded_value = "1034.3 ± 2.7 m/s"

[[record]]
compound = "CCO [ethanol]"
measurement_name = "speed of sound"
recorded_value = "1030.2 ± 2.5 m/s"

[[record]]
compound = "CCCCCC [hexane]"
measurement_name = "speed of sound"
recorded_value = "931.79 ± 2.9 m/s"

[[record]]
compound = "CCCCCCC [heptane]"
measurement_name = "speed of sound"
recorded_value = "989.64 ± 2.9 m/s"

